Data provenance is ChEMBL document CHEMBL4834436.

Test Details: Plasma protein binding Sprague-Dawley rat plasma at 5 uM incubated for 4 hrs
Assay type: ADME, cell-free
Details: read-out: PPB (converted)
Reported fraction unbound at 4 h, 5 µM values follow for various compounds
Kindly provide the number alone.

# Input Smiles, fraction unbound at 4 h, 5 µM
rows = [
    ("CCOc1cc(NC(=O)NCc2cc(C)c(-c3cn(C)nc3C(F)(F)F)nn2)cc(Cl)n1", 0.001),
]

// recorded fraction unbound at 4 h, 5 µM for `CCOc1nc(C)cc(NC(=O)NCc2cc(C)c(-c3cn(C)nc3C(F)(F)F)nn2)c1C` : 0.004

* * *

# Vd listing for each entry below
Test Details: Volume of distribution at steady state in CD1 mouse at 1 mg/kg, iv measured up to 24 hrs by LC-MS/MS analysis
Assay type: ADME, organism-based
Details: in vivo, read-out: Vdss
Give just the numeric value; L/kg need not be written.

Use these answered entries as a reference point.
# Input Smiles, Result Unit, Vd
data = [
    ("CCOc1cc(NC(=O)NCc2cc(C)c(-c3cn(C)nc3C(F)(F)F)nn2)cc(Cl)n1", "L/kg", 0.49),
    ("CCOc1nc(C)cc(NC(=O)NCc2cc(C)c(-c3cn(C)nc3C(F)(F)F)nn2)c1C", "L/kg", 0.47),
]

As a next step, examine the molecule that follows.
// Vd lookup, molecule = `CCOc1cc(NC(=O)NCc2cc(C)c(-c3cn(C)nc3C(F)(F)F)nn2)cc(C(F)(F)F)n1` , result: 0.81

* * *

Test Details: Volume of distribution at steady state in Sprague-Dawley rat at 1 mg/kg, iv measured up to 24 hrs by LC-MS/MS analysis
Type: ADME, organism-based
Details: in vivo, read-out: Vdss
Measured Vd by item
Kindly answer with a numeric value in L/kg, unit omitted.

Notebook: `CCOc1cc(NC(=O)NCc2cc(C)c(-c3cn(C)nc3C(F)(F)F)nn2)cc(Cl)n1` , Vd read as 0.38

The molecule identified as `CCOc1cc(NC(=O)NCc2cc(C)c(-c3cn(C)nc3C(F)(F)F)nn2)cc(C(F)(F)F)n1` registered its Vd at 0.35

response.value for `CCOc1nc(C)cc(NC(=O)NCc2cc(C)c(-c3cn(C)nc3C(F)(F)F)nn2)c1C` (field: Vd) = 0.54

* * *

# Lookup of reported clearance keyed by entry
Test Details: Clearance in Sprague-Dawley rat at 1 mg/kg, iv measured up to 24 hrs by LC-MS/MS analysis
Type: ADME, organism-based
Details: in vivo
Just the number in mL/min/kg, nothing appended.

Field: example entries. Status: answers known.
# Input Smiles, clearance, mL/min/kg
data = [
    ("CCOc1cc(NC(=O)NCc2cc(C)c(-c3cn(C)nc3C(F)(F)F)nn2)cc(Cl)n1", 4.17),
    ("CCOc1cc(NC(=O)NCc2cc(C)c(-c3cn(C)nc3C(F)(F)F)nn2)cc(C(F)(F)F)n1", 1.52),
]

Recorded clearance (molecule `CCOc1nc(C)cc(NC(=O)NCc2cc(C)c(-c3cn(C)nc3C(F)(F)F)nn2)c1C` ): 6.17

* * *

Test Details: Volume of distribution at steady state in beagle dog at 1 mg/kg, iv measured up to 24 hrs by LC-MS/MS analysis
Type: ADME, organism-based, Canis lupus familiaris
Details: in vivo, read-out: Vdss
Observable: Vd (L/kg)
Kindly provide the numeric value in L/kg only, without the unit symbol.

// below: answered molecules
# Input Smiles, Result Unit, Vd
data = [
    ("CCOc1cc(NC(=O)NCc2cc(C)c(-c3cn(C)nc3C(F)(F)F)nn2)cc(Cl)n1", "L/kg", 2.1),
    ("CCOc1nc(C)cc(NC(=O)NCc2cc(C)c(-c3cn(C)nc3C(F)(F)F)nn2)c1C", "L/kg", 1.5),
]

Let us examine a further case.
Summary for this molecule, `CCOc1cc(NC(=O)NCc2cc(C)c(-c3cn(C)nc3C(F)(F)F)nn2)cc(C(F)(F)F)n1` : Vd is 1.1
